study_target: IDO1 (Homo sapiens, UniProt P14902)
Sequence (P14902 whole entry): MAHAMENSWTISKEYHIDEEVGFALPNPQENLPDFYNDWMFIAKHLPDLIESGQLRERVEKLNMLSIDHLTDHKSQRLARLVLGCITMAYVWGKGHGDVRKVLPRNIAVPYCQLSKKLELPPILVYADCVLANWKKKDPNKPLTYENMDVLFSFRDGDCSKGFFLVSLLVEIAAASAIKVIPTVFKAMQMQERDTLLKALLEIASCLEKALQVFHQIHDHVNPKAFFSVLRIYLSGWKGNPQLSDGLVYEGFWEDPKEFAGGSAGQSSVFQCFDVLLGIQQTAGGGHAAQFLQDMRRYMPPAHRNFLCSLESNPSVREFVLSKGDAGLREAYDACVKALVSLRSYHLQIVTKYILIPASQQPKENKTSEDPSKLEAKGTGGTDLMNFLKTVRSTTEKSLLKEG
method_description: IDO1 human whole blood assay
Format: cell-based
Design: Human whole blood was drawn in sodium heparin coated tubes from healthy internal donors; from tissue; host or cells: human whole blood from healthy donors, stimulated with LPS/IFNγ
condition_set: stimulant 100 ng/mL final, 18 h, kynurenine by LC/MS/MS, read-out: Human Whole Blood Potency, IC50
Description: IDO1 Human Whole Blood Assay Compounds to be tested were serially diluted in ten 3-fold steps in DMSO starting from 10 mM. […] On day 2, isotope labeled standard solutions of kunurenine and tryptophan was made in water at 10× concentration and 30 μL was added to the blood at 3 μM final concentration. […] 20 μL of supernatant was carefully transferred to a 384 well plate containing 40 μL of 0.1% formic acid in water and analyzed by LC/MS/MS. […]
experimental_readout: IC50 (µM)
Numbers only, in µM.

O=C(NC1(c2ccc3c(n2)CCCC3Oc2cccc(Cl)c2)CC1)c1ccc(F)cc1 (stereo not drawn) : 0.601

Next item in the queue.
The molecule identified as O=C(NC1(c2ccc3c(n2)CCC[C@H]3Oc2cccc(Cl)c2)CC1)c1ccc(F)cc1 (single isomer, unassigned) registered its IC50 at 0.864

* * *

study_target: IDO1 (Homo sapiens, UniProt P14902)
method_description: IDO1 cellular assay in HeLa cells stimulated with IFNγ
Type: cell-based
condition_set: IFNγ 100 ng/mL, 300 uM L-tryptophan, about 48 hours, fluorescence readout, read-out: HeLa Cell Potency, IC50
experimental_readout: pIC50
Answers are plain numbers, as −log10 of the molar value.

Examples with their reported pIC50 follow.
N#Cc1cccc(OC2CCCc3nc(C4(NC(=O)c5ccc(F)cc5)CC4)ccc32)c1 (centres unmarked) [Example 12] : 8.24
N#Cc1cccc(OC2CCCc3nc(C4(NC(=O)c5ccc(F)cc5)CC4)ccc32)c1 (centres unmarked) [Example 8] : 8.67
O=C(NC1(c2ccc3c(n2)CCCC3OCC2CC2)CC1)c1ccc(F)cc1 (single isomer, unassigned) [Example 19] : 7.18
CCC(NC(=O)c1ccc(F)cc1)c1ccc2c(n1)CCCC2c1cncc(C)c1 (centres unmarked) : 6.19

For each of the compounds below, note its pIC50.
1. O=C(NC1(c2ccc3c(n2)CCC[C@H]3Oc2cccc(Cl)c2)CC1)c1ccc(F)cc1 (single isomer, unassigned)
2. Cc1nccc(C2CCCc3nc(C4(NC(=O)c5ccc(F)cc5)CC4)ccc32)n1 (centres unmarked)
3. Cc1cncc(C2CCCc3nc(C4(NC(=O)c5ccc(F)cc5)CC4)ccc32)c1 (centres unmarked)
4. O=C(NC1(c2ccc3c(n2)CCCC3c2cncc(F)c2)CC1)c1ccc(F)cc1 (centres unmarked)

Output:
[8.53, 7.60, 6.74, 6.42]

For each of the compounds below, note its pIC50.
1. Cc1ccncc1OC1CCCc2nc(C3(NC(=O)c4ccc(F)cc4)CC3)ccc21 (centres unmarked) [Example 6]
2. O=C(NC1(c2ccc3c(n2)CCCC3Nc2cccc(Cl)c2)CC1)c1ccc(F)cc1 (centres unmarked) [Example 16]
3. O=C(NC1(c2ccc3c(n2)CCCC3Oc2cncc(Cl)c2)CC1)c1ccc(F)cc1 (centres unmarked) [Example 11]
4. Cc1nccc([C@H]2CCCc3nc(C4(NC(=O)c5ccc(F)cc5)CC4)ccc32)n1 (single isomer, unassigned)
5. O=C(NC1(c2ccc3c(n2)CCCC3Oc2cncc(Cl)c2)CC1)c1ccc(F)cc1 (centres unmarked) [Example 7]
6. Cc1ccncc1OC1CCCc2nc(C3(NC(=O)c4ccc(F)cc4)CC3)ccc21 (centres unmarked) [Example 10]
7. Cc1ncc(OC2CCCc3nc(C4(NC(=O)c5ccc(F)cc5)CC4)ccc32)cn1 (centres unmarked) [Example 13]
8. Cc1ncc(C2CCCc3nc(C4(NC(=O)c5ccc(F)cc5)CC4)ccc32)cn1 (centres unmarked)

Output:
1: 8.00; 2: 7.86; 3: 8.40; 4: 7.37; 5: 8.27; 6: 6.97; 7: 7.35; 8: 5.85
